targetUnderTest: VAV1 (Homo sapiens, UniProt P15498+Q96SW2)
Construct: A heterozygous VAV1 C-terminal HiBiT knock-in pool was generated at Monte Rosa Therapeutics from a clonal Jurkat cell; endogenous in cells; host or cells: Jurkat clone stably expressing LgBiT, homozygous GSPT1-G575N; heterozygous VAV1-HiBiT knock-in pool
assayOverview: VAV1 degradation activity, VAV1-HiBiT knock-in Jurkat luminescence assay (Example A, Table 1)
Assay type: cell-based
assaySetup: VAV1-HiBiT knock-in Jurkat cells, luminescence read at 6 and 24 hours; read-out: VAV1 DC50 (nM), class
measure: DC50

Reference set (5 entries):
- O=C1CCC(c2cccc(-c3ccc(-n4cccc(F)c4=O)cc3)c2Cl)C(=O)N1 (centres unmarked): ≤ 100 nM
- O=C1CCC(c2cccc(-c3ccc(N4CCCCS4(=O)=O)cc3)c2Cl)C(=O)N1 (centres unmarked): 100 to 1000 nM
- CC(C)Nc1ccc(-c2cccc(C3CCC(=O)NC3=O)c2Cl)cc1 (centres unmarked): 100 to 1000 nM
- Cc1ccn(Cc2ccc(-c3cccc(C4CCC(=O)NC4=O)c3Cl)cc2)c(=O)c1 (centres unmarked): ≤ 100 nM
- O=C1CCC(c2cccc(-c3ccc(CCCn4ccccc4=O)cc3)c2Cl)C(=O)N1 (centres unmarked): 100 to 1000 nM

Just so you know, measured DC50 for O=C1CCC(c2cccc(-c3ccc(Cn4ccccc4=O)cc3)c2F)C(=O)N1 (centres unmarked) came out at ≤ 100 nM

For record COc1ccnc(Cc2ccc(-c3cccc(C4CCC(=O)NC4=O)c3Cl)cc2)n1 (centres unmarked) the listed DC50 is ≤ 100 nM

Data point: Cc1ccc(=O)n(Cc2ccc(-c3cccc(C4CCC(=O)NC4=O)c3Cl)cc2)c1 (centres unmarked) ; DC50 = ≤ 100 nM

Input O=C1CCC(c2cccc(-c3ccc(CS(=O)(=O)N4CCCC4)cc3)c2Cl)C(=O)N1 (centres unmarked) . Output DC50: 100 to 1000 nM

Record Cn1ccc(Cc2ccc(-c3cccc(C4CCC(=O)NC4=O)c3Cl)cc2)n1 (centres unmarked) . Reported DC50: ≤ 100 nM

Notebook: O=C1CCC(c2cccc(-c3ccc(OCCN4CCCC4)cc3)c2Cl)C(=O)N1 (centres unmarked) , DC50 read as > 1000 nM

Looking up Cn1cncc1COc1ccc(-c2cccc(C3CCC(=O)NC3=O)c2Cl)cc1 (centres unmarked) , I found its DC50 recorded as ≤ 100 nM

For O=C1CCC(c2cccc(-c3ccc(N4C(=O)OCC45CCC5)nc3)c2Cl)C(=O)N1 (centres unmarked) the compound record lists DC50 as ≤ 100 nM

In plain terms, COc1ccc(-c2ccc(F)c(C3CCC(=O)NC3=O)c2F)cc1C (centres unmarked) has a documented DC50 of > 1000 nM

DC50 recorded for this compound, CC1(C)CCN(Cc2ccc(-c3cccc(C4CCC(=O)NC4=O)c3Cl)cc2)C(=O)C1 (centres unmarked) , is ≤ 100 nM

Lookup result for O=C1CCC(c2cccc(-c3ccc(N4C(=O)CCCC45COC5)cc3)c2Cl)C(=O)N1 (centres unmarked) ; measured DC50: ≤ 100 nM

Sample O=C1CCC(c2cccc(-c3ccc(N4C(=O)C5CC4C5)cc3)c2Cl)C(=O)N1 (centres unmarked) ; DC50 observed: > 1000 nM

Consider O=C1CCC(c2cccc(-c3ccc(C4(n5ccccc5=O)CC4)cc3)c2Cl)C(=O)N1 (centres unmarked) . Its measured DC50 is 100 to 1000 nM

Please fill in: DC50 reported for O=C1CCC(c2cccc(-c3cccc(COC4CCOC4)c3)c2Cl)C(=O)N1 (centres unmarked) = > 1000 nM

Looking up Cn1ccc(-c2ccc(-c3cccc(C4CCC(=O)NC4=O)c3Cl)cc2)n1 (centres unmarked) , I found its DC50 recorded as 100 to 1000 nM

The value of DC50 measured for the compound Cn1ccc(CCc2ccc(-c3cccc(C4CCC(=O)NC4=O)c3Cl)cn2)n1 (centres unmarked) turned out to be > 1000 nM

For record O=C1CCC(c2cccc(-c3ccc(OCC4CCCO4)cc3)c2Cl)C(=O)N1 (centres unmarked) the listed DC50 is ≤ 100 nM

###

targetUnderTest: VAV1 (Homo sapiens, UniProt P15498+Q96SW2)
Construct: A heterozygous VAV1 C-terminal HiBiT knock-in pool was generated at Monte Rosa Therapeutics from a clonal Jurkat cell; endogenous in cells; host or cells: Jurkat clone stably expressing LgBiT, homozygous GSPT1-G575N; heterozygous VAV1-HiBiT knock-in pool
assayOverview: VAV1 degradation activity, VAV1-HiBiT knock-in Jurkat luminescence assay (Example A, Table 1)
Format: cell-based
assaySetup: VAV1-HiBiT knock-in Jurkat cells, luminescence read at 6 and 24 hours; read-out: VAV1 DC50
measure: DC50 (nM)

Worked set:
- O=C1CCC(c2cccc(-c3ccc(N4CCn5cncc5C4=O)cc3)c2Cl)C(=O)N1 (stereo not drawn): 22
- Cc1cccc(=O)n1-c1ccc(-c2cccc(C3CCC(=O)NC3=O)c2Cl)cc1 (stereo not drawn): 3.61
- Cn1ccc(COc2ccc(-c3cccc([C@H]4CCC(=O)NC4=O)c3Cl)cc2)n1: 101
- CCc1cc(-c2cccc(C3CCC(=O)NC3=O)c2Cl)ccc1N (stereo not drawn): 12.3
- O=C1CCC(c2cccc(-c3ccc(Cn4cccn4)cc3)c2Cl)C(=O)N1 (stereo not drawn): 15.1

I. O=C1CCC(c2cccc(-c3ccc(Cc4nccc(C(F)(F)F)n4)cc3)c2Cl)C(=O)N1 (stereo not drawn)
II. O=C1CCC(c2cccc(-c3ccc4c(c3)CC(=O)N4Cc3ncccn3)c2Cl)C(=O)N1 (stereo not drawn)
III. Cn1ncc2c1CCC(=O)N2c1ccc(-c2cccc(C3CCC(=O)NC3=O)c2Cl)cc1 (stereo not drawn)
IV. O=C1CCC(c2cccc(-c3ccc(N4C(=O)CCC45CCC5)cc3)c2Cl)C(=O)N1 (stereo not drawn)
Task item: # sort list by recorded DC50, greatest to least Rank the items, then write their labels in that order.
Reply: II, I, III, IV
(II: 29.3 nM, I: 17.1 nM, III: 11.8 nM, IV: 2.78 nM)

###

targetUnderTest: VAV1 (Homo sapiens, UniProt P15498+Q96SW2)
Construct: A heterozygous VAV1 C-terminal HiBiT knock-in pool was generated at Monte Rosa Therapeutics from a clonal Jurkat cell; endogenous in cells; host or cells: Jurkat clone stably expressing LgBiT, homozygous GSPT1-G575N; heterozygous VAV1-HiBiT knock-in pool
assayOverview: VAV1 degradation activity, VAV1-HiBiT knock-in Jurkat luminescence assay (Example A, Table 1)
Format: cell-based
assaySetup: Jurkat, VAV1-HiBiT knock-in Jurkat cells, luminescence read at 6 and 24 hours; read-out: VAV1 Dmax %, class
measure: Dmax

Example entries begin here.
- CN1CC(=O)N(c2ccc(-c3cccc(C4CCC(=O)NC4=O)c3Cl)cc2)c2cnccc21 (stereo not drawn): > 90%
- O=C1CCC(c2cccc(-c3ccc(CN4CC5CCCN5CC4=O)cc3)c2Cl)C(=O)N1 (stereo not drawn): 60 to 90%
- O=C1CCC(c2cccc(-c3ccc(N4CC5CC5C4=O)cc3)c2Cl)C(=O)N1 (stereo not drawn): 60 to 90%

For Nc1ncn(Cc2ccc(-c3cccc(C4CCC(=O)NC4=O)c3Cl)cc2)n1 (stereo not drawn) the compound record lists Dmax as 60 to 90%

Dmax recorded for this compound, Cn1ccc(NCc2ccc(-c3cccc(C4CCC(=O)NC4=O)c3Cl)cc2)n1 (stereo not drawn) , is > 90%

Please fill in: Dmax reported for O=C1CCC(c2cccc(-c3ccc(CN4Cc5cccnc5C4=O)cc3)c2Cl)C(=O)N1 (stereo not drawn) = > 90%

###

targetUnderTest: VAV1 (Homo sapiens, UniProt P15498+Q96SW2)
Construct: A heterozygous VAV1 C-terminal HiBiT knock-in pool was generated at Monte Rosa Therapeutics from a clonal Jurkat cell; endogenous in cells; host or cells: Jurkat clone stably expressing LgBiT, homozygous GSPT1-G575N; heterozygous VAV1-HiBiT knock-in pool
assayOverview: VAV1 degradation activity, VAV1-HiBiT knock-in Jurkat luminescence assay (Example A, Table 1)
Format: cell-based
assaySetup: Jurkat, VAV1-HiBiT knock-in Jurkat cells, luminescence read at 6 and 24 hours; read-out: VAV1 Dmax %
measure: Dmax (%)

Solved cases (5 shown):
• CN1CC2(CCC2)N(c2ccc(-c3cccc(C4CCC(=O)NC4=O)c3Cl)cc2)C1=O (stereo not drawn) [Compound 341] = 98.2
• O=C1CCC(c2cccc(-c3ccc(C4COC4)cc3)c2Cl)C(=O)N1 (stereo not drawn) [Compound 198] = 54.6
• O=C1CCC(c2cccc(-c3ccc(N4CCC5(COC5)CC4=O)cc3)c2Cl)C(=O)N1 (stereo not drawn) [Compound 310] = 90.5
• O=C1CCC(c2cccc(-c3ccc(-n4ccc(C(F)(F)F)cc4=O)cc3)c2Cl)C(=O)N1 (stereo not drawn) [Compound 236] = 93.5
• Nc1ccc(-c2cccc(C3CCC(=O)NC3=O)c2Cl)cc1Cl (stereo not drawn) [Compound 105] = 97.7

a. O=C1CCC(c2cccc(-c3ccc(C(=O)n4cccc4)cc3)c2Cl)C(=O)N1 (stereo not drawn) [Compound 222]
b. CN1CC(=O)N(c2ccc(-c3cccc(C4CCC(=O)NC4=O)c3Cl)cn2)CC12CC2 (stereo not drawn) [Compound 346]
Task item: Please indicate which has the smaller reported Dmax: a , or b . Answer = label.
Reply: b
